# melting point per entry

Would you please look over these solved cases?
> print(dat)
                                   compound            val
1                COC(=O)C(=O)CC(=O)c1cccnc1  113 to 115 °C
2  O=C(O)CC1OCCc2ccccc21 (configuration not stated)    74 to 76 °C
3     Cc1cc([N+](=O)[O-])cc(S(=O)(=O)Cl)c1C    66 to 68 °C
4  CN(C)S(=O)(=O)c1ccc(S(=O)(=O)Cl)c([N+](=O)[O-])c1  153 to 155 °C
5                    Cn1c2ccccc2n2c(S)nnc12  270 to 272 °C
6                Clc1ccc2[nH]c3c(c2c1)CNCC3  226 to 228 °C

Turning to the following compound.
Lookup: I am curious: what melting point value has been reported for O=C(O)C1COc2ccc(Cl)cc2C1 (configuration not stated) ?
Found: 85 to 87 °C

----------
Endpoint label: melting point

> print(dat)
                                   compound            val
1                     CC1(C(=O)O)COC(=O)OC1  159 to 161 °C
2  O=C1NCCCCC1Oc1ccc(Br)cc1 (configuration not stated)  176 to 178 °C
3                Nc1nc(-c2c(F)cccc2F)n[nH]1  218 to 220 °C
4            O=[N+]([O-])c1ccc(Cl)c2c1CCCN2    93 to 95 °C
5  O=C(O)C1CCCN1C(=O)c1ccccc1O (configuration not stated)  134 to 136 °C

Lookup: I am curious: what melting point value has been reported for O=C(NC1CC1)c1cc(Br)c[nH]1 ?
Found: 144 to 146 °C

Lookup: Here is the next compound: CC(=O)Nc1ccc(C)c(S(=O)(=O)Cl)c1
Found: 95 to 97 °C

----------
# melting point per entry

Would you please look over these solved cases?
> print(dat)
                           compound            val
1              Cc1cc(=O)n2c(n1)NCC2  159 to 161 °C
2              O=C1OC(=O)C(Cl)=C1Cl  107 to 109 °C
3  CC(C)(C)c1nn(-c2ccccc2)cc1C(=O)O  212 to 214 °C
4                NNC(=O)Cc1ccccc1Cl  154 to 156 °C

Lookup: I am curious: what melting point value has been reported for CCOc1ccc(Cl)nn1 ?
Found: 60 to 62 °C

Lookup: Here is the next compound: CC(=O)CC(=O)Nc1cccc(Cl)c1
Found: 105 to 107 °C

Lookup: Here is the next compound: Nc1nncc(-c2ccc(Br)cc2)n1
Found: 258 to 260 °C

Lookup: Here is the next compound: O=C(O)C1CCCN(S(=O)(=O)c2ccc(F)cc2)C1 (configuration not stated)
Found: 156 to 160 °C

Lookup: Here is the next compound: O=C(O)c1ccc(-c2ccccc2)cc1F
Found: 187 to 189 °C

Lookup: Here is the next compound: N#CCc1cc(Br)c2c(c1)C=CCO2
Found: 79 to 81 °C

Lookup: Here is the next compound: BrCCOc1ccc2ccccc2c1
Found: 94 to 96 °C

Lookup: Here is the next compound: O=c1oc2ccccc2o1
Found: 116 to 118 °C

Lookup: Here is the next compound: OCc1cc(Cl)cc2c1OCC2
Found: 97 to 99 °C

Lookup: Here is the next compound: O=Cc1c(Cl)cccc1N1CCOCC1
Found: 74 to 76 °C

Lookup: Here is the next compound: O=Cc1cc(O)c(O)c(Br)c1
Found: 219 to 221 °C

Lookup: Here is the next compound: O=C(O)C1CC(=O)N(Cc2ccccc2)C1 (configuration not stated)
Found: 140 to 144 °C

Lookup: Here is the next compound: N#Cc1c(F)cccc1S(=O)(=O)Cl
Found: 63 to 65 °C

Lookup: Here is the next compound: CS(=O)(=O)c1ccc(S)cc1
Found: 63 to 65 °C

Lookup: Here is the next compound: N#CC1CSCCS1 (configuration not stated)
Found: 76 to 78 °C

Lookup: Here is the next compound: O=C(CCCl)Nc1ccc(Cl)cc1
Found: 124 to 126 °C

Lookup: Here is the next compound: Cc1nc(=N)c(C)c(C)[nH]1
Found: 196 to 198 °C

Lookup: Here is the next compound: O=c1cc(CCl)c2c(ccc3ccccc32)o1
Found: 119 to 120 °C

Lookup: Here is the next compound: O=Cc1ccc(OC(=O)c2cccc([N+](=O)[O-])c2)cc1
Found: 143 to 145 °C

Lookup: Here is the next compound: CN(c1ccc(-c2csc(N)n2)cc1)S(C)(=O)=O
Found: 205 to 207 °C

----------
# melting point per entry

Would you please look over these solved cases?
> print(dat)
                                   compound            val
1    CCOC(=O)c1ccc(-n2c(C)nc3ccccc3c2=O)cc1  173 to 175 °C
2  CC1CCCCN1S(=O)(=O)c1cccc(C(=O)O)c1 (centres undefined)  149 to 151 °C

Lookup: I am curious: what melting point value has been reported for CN(N)C(N)=O ?
Found: 108 to 110 °C

Lookup: Here is the next compound: Cc1ccc(S(=O)(=O)N2CCCC2)cc1C(=O)O
Found: 178 to 180 °C

Lookup: Here is the next compound: Nc1nc(CCl)nc2ccccc12
Found: 163 to 165 °C

Lookup: Here is the next compound: O=C(O)c1ccc(CN2CCCC2=O)cc1
Found: 151 to 153 °C

Lookup: Here is the next compound: Cc1ccnc(O)c1C(=O)O
Found: 229 to 231 °C

----------
# melting point per entry

> print(dat)
                              compound            val
1            COc1cc(Cl)ccc1S(=O)(=O)Cl    89 to 91 °C
2                   CCn1cnnc1Nc1ccccc1  125 to 127 °C
3  Cc1ccc(S(=O)(=O)N(C)c2ccc(O)cc2)cc1  137 to 139 °C

Lookup: I am curious: what melting point value has been reported for NC(=O)C1CCC(C(F)(F)F)NC1 (stereo not drawn) ?
Found: 127 to 129 °C

Lookup: Here is the next compound: NC(=O)CC1CCCCN1 (stereo not drawn)
Found: 108 to 110 °C

Lookup: Here is the next compound: O=C(O)C1CCCN1C(=O)Cc1ccccc1 (stereo not drawn)
Found: 147 to 149 °C

Lookup: Here is the next compound: Cc1cc(NC(=O)c2cccc(F)c2)sc1C(=O)O
Found: 211 to 213 °C

Lookup: Here is the next compound: Nc1nccc(-c2ccc([N+](=O)[O-])cc2)n1
Found: 217 to 219 °C

Lookup: Here is the next compound: O=c1[nH]c2cc(F)ccc2c(=O)o1
Found: 240 to 242 °C

Lookup: Here is the next compound: COc1ccc(N)cc1S(=O)(=O)Nc1ccc(Cl)cc1
Found: 105 to 107 °C

Lookup: Here is the next compound: Cc1nc(N)ccc1C=CC(=O)O
Found: 253 to 255 °C

Lookup: Here is the next compound: COc1cc(NC(C)=O)ccc1N
Found: 128 to 130 °C

Lookup: Here is the next compound: O=C(O)C1CC2CCCCC2N1C(=O)OCC1c2ccccc2-c2ccccc21 (stereo not drawn)
Found: 169 to 171 °C

Lookup: Here is the next compound: Cc1cccc(NC(=O)Nc2cccc(CN)c2)c1
Found: 163 to 165 °C

Lookup: Here is the next compound: CC(=O)N1CCCc2ccc(S(=O)(=O)Cl)cc21
Found: 93 to 95 °C

Lookup: Here is the next compound: CSc1nc2cnccc2o1
Found: 85 to 87 °C

----------
# melting point per entry

Would you please look over these solved cases?
> print(dat)
                                   compound            val
1                   COc1ccc(-c2nnc(N)s2)cc1  185 to 187 °C
2                           CSc1snc(O)c1C#N  230 to 232 °C
3  O=C(NC(Cc1ccc(O)cc1)C(=O)O)c1cnccn1 (centres undefined)  234 to 236 °C

Lookup: I am curious: what melting point value has been reported for O=C(c1ccc(F)cc1)c1ncccn1 ?
Found: 128 to 130 °C

Lookup: Here is the next compound: COc1ccc(NC(=O)OCC(F)(F)F)cc1
Found: 79 to 81 °C

----------
# melting point per entry

> print(dat)
                                    compound            val
 1                             Nc1ccc(I)cc1O  104 to 106 °C
 2                   COc1ccc(-c2nnc(S)o2)cc1  202 to 204 °C
 3                      CCNC(=O)c1cc(Cl)ccn1    60 to 62 °C
 4  O=[N+]([O-])c1ccc(C2NCCS2)cc1 (configuration not stated)  124 to 126 °C
 5                            CC1(C)NCCNC1=O  113 to 115 °C
 6  CC(Cl)C(=O)Nc1ccnn1C(C)C (configuration not stated)    69 to 71 °C
 7                         ON=Cc1cnc2ccccn12  183 to 185 °C
 8        O=C(O)c1sc(-c2ccccc2)cc1OCc1ccccc1  178 to 180 °C
 9                COC(=O)c1cccc(OCC(N)=NO)c1  134 to 136 °C
10                Sc1nnc(N2CCOCC2)n1Cc1ccco1  151 to 153 °C

Lookup: I am curious: what melting point value has been reported for CCn1c2ccccc2c2cc(CNCCCO)ccc21 ?
Found: 76 to 78 °C

Lookup: Here is the next compound: Nc1cc(N2CCOC2=O)ccc1F
Found: 119 to 121 °C

Lookup: Here is the next compound: CC(=O)N(CCc1ccccc1)CC(=O)O
Found: 149 to 151 °C

Lookup: Here is the next compound: O=C(Nc1ccc([N+](=O)[O-])cc1Cl)OCC(F)(F)F
Found: 132 to 134 °C

Lookup: Here is the next compound: O=S(=O)(c1cccc(-c2nnc(S)n2Cc2ccc(F)cc2)c1)N1CCOCC1
Found: 231 to 233 °C
